Give Kd for every item shown.
Biological target: T1, human CD69 recombinant protein (extracellular region 62-199, homodimer) (human, UniProt Q07108 62-199)
T1 construct: Expressed in the E. coli periplasm from cDNA NM_001781; also called human CD69 homodimer protein; extracellular domain of human CD69
T1 sequence: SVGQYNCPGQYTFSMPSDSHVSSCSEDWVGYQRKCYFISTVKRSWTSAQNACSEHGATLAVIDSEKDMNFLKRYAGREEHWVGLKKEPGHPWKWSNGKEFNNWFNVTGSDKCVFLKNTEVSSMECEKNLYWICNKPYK
Experiment: Scatchard plot; solution equilibrium with antigen, free IgG measured by ELISA
Kindly write the number and append the unit.

Asked: Kindly indicate its recorded Kd. Item: 160-c103 IgG antibody (IgG4) (antibody, V domains shown, Full IgG made in HEK293T; HRP-labelled in the peptide array) VH: QVQLVESGGGLVQPGGSLRLSCAASGFTFSNYYMSWVRQAPGKGLEWVSVISYDGISTHYADSVKGRFTISRDNSKNTLYLQMNSLRAEDTAVYYCARYIGNSLYMDFWGQGTLVTVSS VL: DIVLTQSPATLSLSPGERATLSCRASQSVSSYLAWYQQKPGQAPRLLIYGTSIRATGVPARFSGSGSGTDFTLTISSLEPEDFATYYCQQEYSSPPTFGQGTKVEIKR
Given back: 7.58 nM

Asked: Kindly indicate its recorded Kd. Item: 160-c7 IgG antibody (IgG4) (antibody, V domains shown, Full IgG made in HEK293T; HRP-labelled in the peptide array) VH: QVQLVQSGAEVKKPGASVKVSCKASGYTFTSYDMHWVRQAPGQGLEWMGWINPYSGNTNYAQKFQGRVTMTRDTSISTAYMELSSLRSEDTAVYYCARMYYDKDYLSWGTDSWGQGTLVTVSS VL: DIQMTQSPSSLSASVGDRVTITCRASQDISSYLNWYQQKPGKAPKLLIYGASNLQSGVPSRFSGSGSGTDFTLTISSLQPEDFAVYYCQQYSDYPHTFGQGTKVEIKR
Given back: 47.6 nM

Asked: Kindly indicate its recorded Kd. Item: 234-61 IgG antibody (IgG4) (antibody, V domains shown) VH: QVQPGGSLRLSCAASGFTFSNFVMHWVRQAPGKGLEWVSSISGSSSSTYYADSVKGRFTISRDNSKNTLYLQMNSLRAEDTAVYYCARYYYASFDYWGQGTLVTVSS VL: DIELTQPPSVSVAPGQTARISCSGDSLGSKYVYWYQQKPGQAPVVVIYGDSKRPSGIPERFSGSNSGNTATLTISGTQAEDEADYYCQSYTSFTTKIVFGGGTKLTVLG
Given back: 1.13 nM

Source of measurements: patent US20190233521A1
